# METHOD NOTES: n-octanol/phosphate buffer pH 7.4 partition coefficient (lipophilicity determination)
# Assay type: physicochemical
# RUN CONDITIONS: n-octanol/phosphate buffer pH 7.4, pH 7.4, 25 °C, 1-octanol/phosphate buffer pH 7.4; read-out: Experimental log Po/w (pH 7.4)
PARAMETER: logP at 5 h
Give bare numbers.

[[record]]
compound = "S=c1c2nc[nH]c2nc2[nH]ccn12 [TEGua, 9-thio-1,N^2-ethenoguanine]"
parameter = "logP at 5 h"
test_value = 0.58

[[record]]
compound = "Cc1cn2c(=S)c3ncn([C@@H]4O[C@H](CO)[C@@H](O)[C@H]4O)c3nc2[nH]1 [6-Me-TEGuo, 6-methyl-9-thio-1,N^2-ethenoguanosine]"
parameter = "logP at 5 h"
test_value = -0.61

[[record]]
compound = "Cc1cn2c(=S)c3nc[nH]c3nc2[nH]1 [6-Me-TEGua, 6-methyl-9-thio-1,N^2-ethenoguanine]"
parameter = "logP at 5 h"
test_value = 0.75


Provide logP at 5 h values for the following items, in order.
1. CC(=O)OC[C@H]1O[C@@H](n2cnc3c(=S)n4cc(C)[nH]c4nc32)[C@H](OC(C)=O)[C@@H]1OC(C)=O [6-Me-TEG]
2. OC[C@H]1O[C@@H](n2cnc3c(=S)n4cc[nH]c4nc32)[C@H](O)[C@@H]1O [TEGuo, 9-thio-1,N^2-ethenoguanosine]

[0.8, -0.89]

###

# METHOD NOTES: n-octanol/phosphate buffer pH 7.4 partition coefficient (lipophilicity determination)
# Assay type: physicochemical
# RUN CONDITIONS: n-octanol/phosphate buffer pH 7.4, pH 7.4, 37 °C, 1-octanol/phosphate buffer pH 7.4; read-out: Experimental log Po/w (pH 7.4)
Returns T if the recorded logP at 5 h is greater than or equal to 0.5, and F otherwise.

[[record]]
sample_smiles = "Cc1cn2c(=S)c3nc[nH]c3nc2[nH]1"
label = "T"


We next turn to a different molecule, shown below.
Dear colleague, could you confirm whether S=c1c2nc[nH]c2nc2[nH]ccn12 has logP at 5 h at or above 0.5? T

###

# METHOD NOTES: pKa determination by spectrophotometric method
# Format: physicochemical
# RUN CONDITIONS: at physiological pH (7.32–7.42)
PARAMETER: fraction existing in ionic form

[[record]]
compound = "Cc1cn2c(=S)c3ncn([C@@H]4O[C@H](CO)[C@@H](O)[C@H]4O)c3nc2[nH]1 [6-Me-TEGuo, 6-methyl-9-thio-1,N^2-ethenoguanosine]"
parameter = "fraction existing in ionic form"
test_value = "about 4%"

[[record]]
compound = "OC[C@H]1O[C@@H](n2cnc3c(=S)n4cc[nH]c4nc32)[C@H](O)[C@@H]1O [TEGuo, 9-thio-1,N^2-ethenoguanosine]"
parameter = "fraction existing in ionic form"
test_value = "about 6%"

[[record]]
compound = "Cc1cn2c(=S)c3nc[nH]c3nc2[nH]1 [6-Me-TEGua, 6-methyl-9-thio-1,N^2-ethenoguanine]"
parameter = "fraction existing in ionic form"
test_value = "about 4%"

[[record]]
compound = "S=c1c2nc[nH]c2nc2[nH]ccn12 [TEGua, 9-thio-1,N^2-ethenoguanine]"
parameter = "fraction existing in ionic form"
test_value = "about 6%"


###

# Test system: NIH/3T3 cells
# METHOD NOTES: CellTiter-Glo cell viability assay (24 h), NIH/3T3
# Type: cell-based
# RUN CONDITIONS: Mus musculus, NIH3T3, NIH/3T3, 24 h
PARAMETER: pIC50
Answers are plain numbers, as −log10 of the molar value.

[[record]]
compound = "S=c1c2nc[nH]c2nc2[nH]ccn12 [TEGua, 9-thio-1,N^2-ethenoguanine]"
test_value = 4.01

[[record]]
compound = "OC[C@H]1O[C@@H](n2cnc3c(=S)n4cc[nH]c4nc32)[C@H](O)[C@@H]1O [TEGuo, 9-thio-1,N^2-ethenoguanosine]"
test_value = 4.08

[[record]]
compound = "Cc1cn2c(=S)c3ncn([C@@H]4O[C@H](CO)[C@@H](O)[C@H]4O)c3nc2[nH]1 [6-Me-TEGuo, 6-methyl-9-thio-1,N^2-ethenoguanosine]"
test_value = 4.20


Now for the compound whose pIC50 we want.
Known value: NIH/3T3 cells pIC50 of the compound Cc1cn2c(=S)c3nc[nH]c3nc2[nH]1 [6-Me-TEGua, 6-methyl-9-thio-1,N^2-ethenoguanine] equals 4.29
